- Conditions: [M+H]+; instrument: TW; calibrated with polyalanine and drug standards
Classify as follows. Reported collision cross section (N2) greater than or equal to 200 Å²: Yes. Reported collision cross section (N2) below: No.

Here are 3 compounds together with their reported answers.
# Compound, Answer label
records = [
    ("Cc1cc(O)cc(=O)o1 [4-HYDROXY-6-METHYLPYRAN-2-ONE]", "No"),
    ("COC(=O)C[C@H]1C2(C)CC34OC5(C)O[C@@]6([C@H](OC(C)=O)C(OC(C)=O)[C@]7(C)C(/C(=C(/O)C(C)C)C(=O)O[C@H]7c7ccoc7)[C@@]6(O5)[C@H](OC(C)=O)[C@@]3(O)C2OC(=O)C(C)C)[C@]14C (stereo not given in full) [BUSSEIN]", "Yes"),
    ("C=C[C@H]1CN2CC[C@H]1C[C@H]2[C@H](O)c1ccnc2ccccc12 [CINCHONIDINE]", "No"),
]

**Q:** Check the entry COc1c(C)c2c(c(O)c1C/C=C(\C)CCC(=O)O)C(=O)OC2 [MYCOPHENOLIC ACID] : does collision cross section (N2) equal or exceed 200 Å²?
**A:** No

**Q:** Check the entry COc1ccc2oc3ccccc3c(=O)c2c1 [2-METHOXYXANTHONE] : does collision cross section (N2) equal or exceed 200 Å²?
**A:** No

**Q:** Check the entry COc1ccc(-c2cc(=O)c3c(O)cc(O[C@@H]4O[C@H](CO[C@@H]5O[C@@H](C)[C@H](O)[C@@H](O)[C@H]5O)[C@@H](O)[C@H](O)[C@H]4O)cc3o2)cc1O [DIOSMIN] : does collision cross section (N2) equal or exceed 200 Å²?
**A:** Yes

**Q:** Check the entry C=CC[C@]1(O)CC[C@H]2[C@@H]3CCC4=CC(=O)CCC4=C3C=C[C@@]21C [ALTRENOGEST] : does collision cross section (N2) equal or exceed 200 Å²?
**A:** No

**Q:** Check the entry CS(=O)(=O)c1ccc([C@@H](O)[C@@H](CO)NC(=O)C(Cl)Cl)cc1 [THIAMPHENICOL] : does collision cross section (N2) equal or exceed 200 Å²?
**A:** No

**Q:** Check the entry CC1=C(C/C=C(\C)CCC[C@H](C)CCC[C@H](C)CCCC(C)C)C(=O)c2ccccc2C1=O [PHYTONADIONE] : does collision cross section (N2) equal or exceed 200 Å²?
**A:** Yes

**Q:** Check the entry O=C(O)[C@H](O)[C@@H](O)[C@H](O[C@@H]1O[C@H](CO)[C@H](O)[C@H](O)[C@H]1O)[C@H](O)CO [LACTOBIONIC ACID] : does collision cross section (N2) equal or exceed 200 Å²?
**A:** No

**Q:** Check the entry COc1ccc(C(=O)CC(=O)O)c2c1C=CC(C)(C)O2 [URSINOIC ACID] : does collision cross section (N2) equal or exceed 200 Å²?
**A:** No

**Q:** Check the entry CCOc1ccc2nc(S(N)(=O)=O)sc2c1 [ETHOXZOLAMIDE] : does collision cross section (N2) equal or exceed 200 Å²?
**A:** No

**Q:** Check the entry C[C@]12C=CC(=O)C=C1CC[C@@H]1[C@@H]2CC[C@]2(C)C(=O)CC[C@@H]12 [ANDROSTA-1,4-DIEN-3,17-DIONE] : does collision cross section (N2) equal or exceed 200 Å²?
**A:** No

**Q:** Check the entry Cc1c(C(N)=O)cc([N+](=O)[O-])cc1[N+](=O)[O-] [DINITOLMIDE] : does collision cross section (N2) equal or exceed 200 Å²?
**A:** No

**Q:** Check the entry COc1ccc(C(CN(C)C)C2(O)CCCCC2)cc1 (stereo not given) [VENLAFAXINE] : does collision cross section (N2) equal or exceed 200 Å²?
**A:** No
